# measured_target: human TRPV4 (Homo sapiens)
# Construct: host or cells: tetracycline-inducible Flp-In T-REx 293 cells
# Sequence (Q9HBA0 whole entry): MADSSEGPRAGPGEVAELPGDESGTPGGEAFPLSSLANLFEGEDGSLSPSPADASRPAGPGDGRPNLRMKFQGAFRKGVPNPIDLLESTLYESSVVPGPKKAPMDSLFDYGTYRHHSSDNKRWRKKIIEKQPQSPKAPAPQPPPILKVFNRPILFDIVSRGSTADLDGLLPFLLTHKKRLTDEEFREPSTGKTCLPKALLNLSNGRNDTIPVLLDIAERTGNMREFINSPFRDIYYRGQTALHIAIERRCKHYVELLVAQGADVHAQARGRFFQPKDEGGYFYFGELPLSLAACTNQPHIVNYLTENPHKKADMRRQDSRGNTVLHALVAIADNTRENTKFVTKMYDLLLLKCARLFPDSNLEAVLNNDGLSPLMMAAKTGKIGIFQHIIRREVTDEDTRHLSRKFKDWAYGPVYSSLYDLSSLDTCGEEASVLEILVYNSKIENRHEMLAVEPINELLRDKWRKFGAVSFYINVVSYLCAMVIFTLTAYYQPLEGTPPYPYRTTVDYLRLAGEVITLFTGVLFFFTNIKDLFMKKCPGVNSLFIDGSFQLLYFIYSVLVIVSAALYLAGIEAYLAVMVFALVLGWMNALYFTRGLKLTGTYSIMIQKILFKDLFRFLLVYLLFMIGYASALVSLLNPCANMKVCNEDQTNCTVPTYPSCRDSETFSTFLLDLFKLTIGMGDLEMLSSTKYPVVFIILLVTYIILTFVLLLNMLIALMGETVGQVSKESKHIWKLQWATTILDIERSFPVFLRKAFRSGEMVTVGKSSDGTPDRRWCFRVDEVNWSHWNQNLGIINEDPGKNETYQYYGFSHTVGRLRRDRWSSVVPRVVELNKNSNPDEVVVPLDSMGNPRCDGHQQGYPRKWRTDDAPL
# assay_overview: Hypotonicity-induced Ca2+ influx (Fluo-4, FDSS)
# Format: cell-based
# test_context: Flp-In T-REx 293 cells stably expressing human TRPV4, compounds listed by potency bin (<10 nM Tables 96-1/96-2, <3 nM Table 97)
Measured IC50 of individual entries

Lookup result for O=C([C@H](O)c1cccc(-c2cccc(C(F)(F)F)c2)c1)N1CCc2nc(C3(c4ccccc4)CC3)[nH]c(=O)c2C1 [44-71] ; measured IC50: < 3 nM

New cases:
Field IC50 (entry O=C(N1CCc2nc(C3(c4cncc(-c5ccccc5)c4)CC3)[nH]c(=O)c2C1)C(F)(F)c1cccc(C(F)(F)F)c1 [22-6] ) reads < 10 nM

The reported value for N#Cc1ccccc1-c1cccc(C2(c3nc4c(c(=O)[nH]3)CN(C(=O)[C@H](O)c3cccc(C(F)(F)F)c3)CCC4)CC2)c1 [42-63] in terms of IC50 is < 10 nM

Reported IC50 of CC(C)c1csc(C2(c3nc4c(c(=O)[nH]3)CN(C(=O)C(F)(F)c3cccc(Cl)c3)CCC4)CC2)c1 [21-3] : < 3 nM

Documented IC50 of CC(C)(C)c1cccc(-c2cccc([C@@H](O)C(=O)N3CCCc4nc(C5(c6cccc(-c7csc8ccccc78)c6)CC5)[nH]c(=O)c4C3)c2)c1 [52-12] : < 10 nM

# compound Cc1cc(Cl)cc(-c2cccc([C@@H](O)C(=O)N3CCCc4nc(C5(c6ccccc6)CC5)[nH]c(=O)c4C3)c2)c1 [49-29] ; its IC50 = < 10 nM

For record O=C([C@H](O)c1cccc(C(F)(F)F)c1)N1CCCc2nc(C3(c4cccc(-c5cnn(C6CCC6)c5)c4)CC3)[nH]c(=O)c2C1 [42-12] the listed IC50 is < 3 nM

Hey, just so you know, these numbers are from patent US12673946B2.
